Data origin, for the record: ChEMBL document CHEMBL2311493

# assay.target: Sodium- and chloride-dependent GABA transporter 1 (Mus musculus)
recorded.endpoint: Ki (µM)

Illustrative cases are given below, each with its answer.
                                   molecule                              assay_target  recorded_endpoint  value_observed
0  O=C(O)C1CCCN(CCC/C=C/c2ccccc2-c2ccc(F)cc2F)C1 (stereo not given)  Sodium- and chloride-dependent GABA transporter 1 (Mus musculus)                 Ki           0.592
1  O=C(O)C1CCCN(CCC/C=C/c2ccccc2-c2ccccc2F)C1 (stereo not given)  Sodium- and chloride-dependent GABA transporter 1 (Mus musculus)                 Ki           0.647
2  O=C(O)C1CCCN(CCN/N=C/c2ccccc2-c2ccc(C(F)(F)F)cc2C(F)(F)F)C1 (stereo not given)  Sodium- and chloride-dependent GABA transporter 1 (Mus musculus)                 Ki            0.17
3  O=C(O)C1CCCN(CCN/N=C/c2ccccc2-c2cccs2)C1 (stereo not given)  Sodium- and chloride-dependent GABA transporter 1 (Mus musculus)                 Ki            0.59

1. O=C(O)C1CCCN(CCC/C=C/c2ccccc2-c2ccc(F)cc2Cl)C1 (stereo not given)
2. O=C(O)C1CCCN(CCN/N=C/c2ccccc2-c2ccccc2F)C1 (stereo not given)
3. O=C(O)C1CCCN(CCN/N=C/c2ccccc2-c2cccc(F)c2F)C1 (stereo not given)
Parameters: sort_field (Ki), sort_dir (desc). Answer by naming the labels in the order asked.
1, 3, 2
(1: 0.313 µM, 3: 0.204 µM, 2: 0.122 µM)

P. O=C(O)C1CCCN(CCN/N=C/c2cc(F)ccc2-c2ccc(Cl)cc2)C1 (stereo not given)
Q. O=C(O)C1CCCN(CCN/N=C/c2ccccc2-c2ccc(F)c(F)c2)C1 (stereo not given)
R. O=C(O)C1CCCN(CCN/N=C/c2ccccc2-c2c(F)cccc2F)C1 (stereo not given)
Sort entries by Ki from minimum to maximum value. Form field (ranking): labels in requested order.
R, P, Q
(R: 0.131 µM, P: 0.234 µM, Q: 0.625 µM)
